biological target: T1, epitope tag peptide SRLEEELRRRLTE (SEQ ID NO: 2), biotinylated (also: biotinylated (site and linker not given here)); assay: BLI (Octet), biotinylated peptide on SAX2.0 biosensors, 1:1 global fit
T1 construct: Rationally designed peptide; also called ALFA-tag
T1 peptide: SRLEEELRRRLTE
Ends that are not written are not given here.
readout.name: koff (s⁻¹)
Note: unit s⁻¹ is implicit; provide only the numeric part.

Completed entries (count: 3):
binder="Variant 13 of humanized NbALFA (VHH) VHH: EVQLVESGGGLVQPGGSLRLSCAASGVTISALNAMAMGWYRQAPGKRREMVAAVSERGNTYYRDSVKGRFTISRDNAKRMVYLQMNSLRAEDTAVYYCHVLEDRVDSFHDYWGQGTQVTVSS" endpoint_value=0.000167
binder="Variant 12 of humanized NbALFA (VHH) VHH: EVQLVESGGGLVQPGGSLRLSCAASGVTISALNAMAMGWYRQAPGKRREMVAAVSERGNTMYRESVKGRFTISRDNAKRMVYLQMNSLRAEDTAVYYCHVLEDRVDSFHDYWGQGTQVTVSS" endpoint_value=0.000151
binder="Variant 11 of humanized NbALFA (VHH) VHH: EVQLVESGGGLVQPGGSLRLSCAASGVTISALNAMAMGWYRQAPGKRREMVAAVSERGNAMYRESVKGRFTISRDNAKRMVYLQMNSLRAEDTAVYYCHVLEDRVDSFHDYWGQGTQVTVSS" endpoint_value=3.7e-05

Please examine the following record next.
Reported koff for Variant 9 of humanized NbALFA (VHH, Further engineered humanized variant; Any tag on the tested construct is not described) VHH: EVQLVESGGGLVQPGGSLRLSCAASGVTISALNAMAMGWYRQAPGKRREMVAAVSERGNAMYRESVQGRFTISRDNAKRMVYLQMNSLRAEDTAVYYCHVLEDRVDSFHDYWGQGTQVTVSS : what is it? 3.69e-05
